Quick reference: secreted FVIII-Gluc luciferase Z-score of the listed items.
test system: HEK293 WT BDD-FVIII-Gluc; assay: secreted FVIII-Gluc luciferase Z-score vs DMSO control; higher = more FVIII-Gluc secretion; conditions: 5 µM
Field format: numeric only.

Query :: Sample COc1ccc2c(c1OC)C(Cc1ccccc1)N1CCc3cc4c(cc3C1C2)OCO4 (stereo not drawn) — what was its secreted FVIII-Gluc luciferase Z-score?
Result :: 0.496

Query :: Sample COc1cc2c(C=O)c3c4c(cc(OC)c(OC)c4c2cc1OC)CCN3C — what was its secreted FVIII-Gluc luciferase Z-score?
Result :: 0.315

###

system: HEK293 WT BDD-FVIII-Gluc; experiment: secreted FVIII-Gluc luciferase Z-score vs DMSO control; higher = more FVIII-Gluc secretion; settings: 5 µM
Quick reference: secreted FVIII-Gluc luciferase Z-score of the listed items.
Field format: numeric only.

Solved cases (5 shown):
Query :: Short answer please: secreted FVIII-Gluc luciferase Z-score, HEK293 WT BDD-FVIII-Gluc, entry CC1=C(/C=C/C(C)=C/C=C/C(C)=C/C(=O)O)C(C)(C)CCC1
Result :: -0.377

Query :: Short answer please: secreted FVIII-Gluc luciferase Z-score, HEK293 WT BDD-FVIII-Gluc, entry Nc1ccn([C@@H]2O[C@H](CO)[C@@H](O)[C@H]2O)c(=O)n1
Result :: 1.12

Query :: Short answer please: secreted FVIII-Gluc luciferase Z-score, HEK293 WT BDD-FVIII-Gluc, entry COc1cc(C(=O)OC2CC(C)=CCC3(C)CCC(O)(C(C)C)C23)ccc1O (stereo unspecified)
Result :: -0.405

Query :: Short answer please: secreted FVIII-Gluc luciferase Z-score, HEK293 WT BDD-FVIII-Gluc, entry COc1cc([C@@H]2c3cc4c(cc3C(OC3OC5COC(C)OC5C(O)C3O)C3COC(=O)[C@@H]32)OCO4)cc(OC)c1O (stereo partly specified)
Result :: -6.37

Query :: Short answer please: secreted FVIII-Gluc luciferase Z-score, HEK293 WT BDD-FVIII-Gluc, entry COc1c(C)c2c(c(O)c1C/C=C(\C)CCC(=O)O)C(=O)OC2
Result :: -4.24

Others:
Query :: Short answer please: secreted FVIII-Gluc luciferase Z-score, HEK293 WT BDD-FVIII-Gluc, entry CC(=O)Oc1c(C)c(C)c2c(c1C)CCC(C)(CCCC(C)CCCC(C)CCCC(C)C)O2 (stereo unspecified)
Result :: 0.728

Query :: Short answer please: secreted FVIII-Gluc luciferase Z-score, HEK293 WT BDD-FVIII-Gluc, entry N[C@@H](Cc1c[nH]c2ccc(O)cc12)C(=O)O
Result :: 0.43

Query :: Short answer please: secreted FVIII-Gluc luciferase Z-score, HEK293 WT BDD-FVIII-Gluc, entry OCc1ccccc1O[C@@H]1O[C@H](CO)[C@@H](O)[C@H](O)[C@H]1O
Result :: 0.752

Query :: Short answer please: secreted FVIII-Gluc luciferase Z-score, HEK293 WT BDD-FVIII-Gluc, entry CC1=C(C/C=C(\C)CCCC(C)CCCC(C)CCCC(C)C)C(=O)c2ccccc2C1=O (stereo unspecified)
Result :: 0.33

Query :: Short answer please: secreted FVIII-Gluc luciferase Z-score, HEK293 WT BDD-FVIII-Gluc, entry COc1ccccc1-c1cc(=O)c2cc(O)ccc2o1
Result :: 0.281

Query :: Short answer please: secreted FVIII-Gluc luciferase Z-score, HEK293 WT BDD-FVIII-Gluc, entry O=C(O)C(=O)Cc1ccccc1
Result :: 0.46

Query :: Short answer please: secreted FVIII-Gluc luciferase Z-score, HEK293 WT BDD-FVIII-Gluc, entry Oc1cc2c(cc1O)[C@H]1c3ccc(O)c(O)c3OC[C@@]1(O)C2
Result :: 0.368
